Where do these numbers come from? They come from paper PMC9876794.

binding score values, listed per item
Target: SARS-CoV-2 spike RBD (WT) (Severe acute respiratory syndrome …, UniProt P0DTC2)
Assay: ELISA
Set-up: unit not given here

Look up binding score: D009 (antibody, V domains shown) VH: EVQLLESGGGLVQPGGSLRLSCAATGFTFGSYTMTWVRQAPGKGLEWVSSISVSGRRTYYAGSVQGRFTVSRDNSMNALFLQMNSLRADDTAVYYCARDAPREAYYDRTGHYIFYYGMDLWGQGTTVTVSS VL: EIVMTQSPATLSVSPGERATLSCRASQSVSDNLAWYQQKPGQAPRLLIYGASTRAIGIPDRFTGSGSGTEFTLTISSLQSEDFAVYYCQHYNNGPSVGFGQGTRVEFK
2390

Now consider D153 (antibody, V domains shown) VH: QVQLVQSGAEVKKPGASVKVSCKASGYTFTSYGISWVRQAPGQGLEWMGWISAYNGNTNYAQKLQGRVTMTTDTSTSTAYMELRSLRSDDTAVYYCARDFNDFWSGYWGYWGQGTLVTVSS VL: QSALTQPPSASGSPGQSVTISCTGTSSDVGGYNYVSWYQQHPGKAPKLMIYEVSKRPSGVPDRFSGSKSGNTASLTVSGLQAEDEADYYCSSYAGSNNLVFGGGTKLTVL .
> 10000

Now consider D070 (antibody, V domains shown) VH: EVQLVESGGGLVQPGGSLRLSCAASGFTFSSYEMNWVRQAPGKGLEWVSYISSSGSTIYYADSVKGRFTISRDNAKNSLYLQMNSLRAEDTAVYYCARVPRGYYDSSGYYYVGYYFDYWGQGTLVTVSS VL: DIQLTQSPSFLSASVGDRVTITCRASQGISSYLAWYQQKPGKAPKLLIYAASTLQSGVPSRFSGSGSGTEFTLTISSLQPEDFATYYCQQLNSYTFTFGPGTKVDIK .
716

Now consider D179 (antibody, V domains shown) VH: EVQLVESGGGLVQPGRSLRLSCAASGFTFDDYAMHWVRQAPGKGLEWVSGISWNSGSIGYADSVKGRFTISRDNAKNSLYLQMNSLRAEDTALYYCAKGQIVGATSSDYGMDVWGQGTTVTVSS VL: DIQMTQSPSSVSASVGDRVTITCRASQGISSWLAWYQQKPGKAPKLLIYAASSLQSGVPSRFSGSGSGTDFTLTISSLQPEDFATYYCQQANSFPYTFGQGTKLEIK .
8900
